- Tested on: MS2 coat protein
- testSummary: apparent Kd, MS2 coat protein; higher = weaker binding; RNA-MaP array; tryptophan 2.4 mM where present
- conditionSummary: ligand present: tryptophan; designed as: OFF switch for tryptophan
// apparent Kd lookup, one value per entry
Provide only the numeric value, understood in nM.

Take a look at these entries with their results.
# seq, testTarget, apparent Kd, nM
records = [
    ("AGUUCCAGGUCGGCCGCCACUGGCAUGGCCGGUCCUCGGACUUACAUGAGGAUCACCCAUGUGAACAGGACCGGGACCGCAUGGG", "MS2 coat protein", 48.2),
    ("GCGACCCUGAGAUCCUACGUAACGUGAACACGAGGACCGGUACGGCCGCCACUCGAGAGAACAUGAGGAUCACCCAUGUCUGAGC", "MS2 coat protein", 88.5),
    ("UACUUGCUGACGGCCGCCACUAGAACAUGAGGAUCACCCAUGUAUGGCGGCCGUCAUGGGUGGACUAGGACCGGGUCAGCAAGAU", "MS2 coat protein", 13.6),
    ("GGAUAGGACACGGCCGCCACUGCCUAGGAUACUAGAAACAUUUCCUCACAUGAGGAUCACCCAUGUAGGACCGGGUGUCCUAUCG", "MS2 coat protein", 267),
    ("AAUGAGUGGUGGUCAAGUGAUCCUCAUGAACGAGGACCGGUACGGCCGCCACUCGAUAACAUGAGGAUCACCCAUGUAAUAAUAA", "MS2 coat protein", 14.8),
    ("UACUUGCUGACGGCCGCCACUAGAACAUGAGGAUCACCCAUGUAGGUCCUAGAUUCCUCAUGAACUAGGACCGGGUCAGCAAGAU", "MS2 coat protein", 12.4),
    ("GGAUAGGACACGGCCGCCACUGCGGCUAGAUACUAGCACAUUUCCUCACAUGAGGAUCACCCAUGUAGGACCGGGUGUCCUAUCG", "MS2 coat protein", 132),
    ("UAAUCAGUGCCGGUUCUCGGAUCCUCAUGUCGAGGACCGGUACGGCCGCCACUCGAAACAUGAGGAUCACCCAUGUAAUAAUAAU", "MS2 coat protein", 65.8),
    ("AGUAAUAAUAUAAAUAAUAUUAGGUCAUGGCGAGGACCGGUACGGCCGCCACUCGGUUACAUGAGGAUCACCCAUGUCCCGCUUA", "MS2 coat protein", 34.6),
    ("UUCUUUAAGUCGGCCGCCACUGAAACAUGAGGAUCACCCAUGUAUAUUUGUGUAAAGGUGGAUUACAGGACCGGGACUAUAGUAA", "MS2 coat protein", 12),
]

Now for the sequence whose apparent Kd we want.
**Query** Fill in the blank: the reported apparent Kd of GUUAUAUACUCGGCCGCCACUGAGAGAGUCAUGUAAACAUGAGGAUCACCCAUGUAAUAUAUAUACAGGACCGGGAGUAUGGUAA is ____.
**Result** 13.5

###

- Test system: MS2 coat protein
- testSummary: apparent Kd, MS2 coat protein; higher = weaker binding; RNA-MaP array; theophylline 2 mM where present
- conditionSummary: ligand present: theophylline; designed as: OFF switch for theophylline
// apparent Kd lookup, one value per entry
Provide only the numeric value, understood in nM.

Take a look at these entries with their results.
# seq, readoutName, endpointUnit, measValue
measured = [
    ("ACGUCACGUUUACUCGUGGUUUCGAUCGAUACCAGUAGCGAGAGUUACCCUUGGCAGCGACAUGAGGAUCACCCAUGUGCGAAGA", "apparent Kd", "nM", 15.9),
    ("AUAUUAGACCUGGAUACCAGCGACAUGAGGAUCACCCAUGUAUGUGCAUCAGCCAUGAUAUGCCCUUGGCAGCCACCGAGGUCGU", "apparent Kd", "nM", 37.2),
]

**Query** Fill in the blank: the reported apparent Kd of UUCUGGUCCCGUGAUACCAGAGACAUGAGGAUCACCCAUGUACAUGAGGAUCACCCAUGUUUCCCUUGGCAGCACUGUAGGGAGC is ____.
**Result** 1220

**Query** Do the same for GCCCUUGGCAGCGAUACCAGCCAAAAUUAAAAUAAACCUCUACAUGAGGAUCACCCAUGUGGCCCUUGGCAGCGAUACCAGCAAA please
**Result** 76.4

**Query** Do the same for ACGAACGAUAGUGAUACCAGACGAACAUGAGGAUCACCCAUGUUAUACACAUGGUUUAUUGUCCCUUGGCAGCACUUUAAGUUCG please
**Result** 89.6

**Query** Do the same for UAAACACAUGAGGAUCACCCAUGUCAUGAUACCAGUCAACAUGAGGACCCUUGGCAGCAUAAAAUGGGUAACAUGAGGAUCACCC please
**Result** 112

**Query** Do the same for AAACAUUGCUCAGAUACCAGACAUGAGGAUCACCCAUGUACCGAGGUACCCGAAAGGAAUGUCCCUUGGCAGCUGAGCAAUGAAA please
**Result** 129

**Query** Do the same for CAUGAAGUAACUGAUACCAGUGUACUGACAUGAGGAUCACCCAUGUUGGGUUUUGUUGUACACCCUUGGCAGCAGAAUCUUUAUG please
**Result** 110

**Query** Do the same for UGACAUUGCUCAGAUACCAGACAUGAGGAUCACCCAUGUACCAAGGUAAGAAAAUAACAUGUCCCUUGGCAGCUGAGCAAUGUCU please
**Result** 240

**Query** Do the same for AUAUGAUCAUAUGAUACCAGAAAUGGUAUUCCUUUCUUUCUUACAUGAGGAUCACCCAUGUUCCCUUGGCAGCAUAUGAUCAUAU please
**Result** 193

**Query** Do the same for UGGAAAGCACAUGAGGAUCACCCAUGUGAUACCAGCUGAAACUAAGGCCCUUGGCAGCACAUGGUACCAACCCUUUGGUAGUCCA please
**Result** 50.5

**Query** Do the same for CAUGAAGUAACUGAUACCAGUGUACACAUGAGGAUCACCCAUGUGUUGGGUUUUGUUGUACACCCUUGGCAGCAGAAUCUUUAUG please
**Result** 100

**Query** Do the same for AGCAUUGUAACAGAUACCAGACUUUUAAUGCCUCUAAUAACAUGAGGAUCACCCAUGUAUGUCCCUUGGCAGCUGUUAUGAUGCA please
**Result** 220

**Query** Do the same for AGCGACAUGCAUGAUACCAGCUACAUGAGGAUCACCCAUGUACGUCAGUAAUGACUGUGUAGCCCUUGGCAGCAUAGAGCAUGUU please
**Result** 53.6

**Query** Do the same for ACAUGAGGAUCACCCAUGUGCAGCACGGAUACCAGCGUCCUAGUGCGCCCUUGGCAGCCGGACAUGAGGAUCACCCAUGUGUGGG please
**Result** 219

**Query** Do the same for AUUAUCAUGGUCAUAUAUAUAUCUUCAGAUACCAGACUAUAUUAAGUCCCUUGGCAGCUGUUACAUGAGGAUCACCCAUGUUAUA please
**Result** 43.5

**Query** Do the same for AUAGUCUUGAGUGAUACCAGACUACAUGAGGAUCACCCAUGUUUCUUUUGGUUAUCAUGUGUCCCUUGGCAGCACGCAUGUAUAG please
**Result** 65.8

**Query** Do the same for AUAUGAUCAUGUGAUACCAGAAAUGGUAGUCCUCGCUGGAUUACAUGAGGAUCACCCAUGUUCCCUUGGCAGCAUAUGAUCAUAU please
**Result** 751
